Task for the reader: assign each of the following molecules its reported αKi (non-competitive inhibition constant), AChE.
System Tested: AChE (Homo sapiens)
Construct: human erythrocyte AChE, equine serum BChE, and porcine liver CES were used; purchased Sigma-Aldrich; host or cells: human erythrocytes (tissue-derived)
Sequence (P22303 32-617 isoform P22303-2 limits assumed): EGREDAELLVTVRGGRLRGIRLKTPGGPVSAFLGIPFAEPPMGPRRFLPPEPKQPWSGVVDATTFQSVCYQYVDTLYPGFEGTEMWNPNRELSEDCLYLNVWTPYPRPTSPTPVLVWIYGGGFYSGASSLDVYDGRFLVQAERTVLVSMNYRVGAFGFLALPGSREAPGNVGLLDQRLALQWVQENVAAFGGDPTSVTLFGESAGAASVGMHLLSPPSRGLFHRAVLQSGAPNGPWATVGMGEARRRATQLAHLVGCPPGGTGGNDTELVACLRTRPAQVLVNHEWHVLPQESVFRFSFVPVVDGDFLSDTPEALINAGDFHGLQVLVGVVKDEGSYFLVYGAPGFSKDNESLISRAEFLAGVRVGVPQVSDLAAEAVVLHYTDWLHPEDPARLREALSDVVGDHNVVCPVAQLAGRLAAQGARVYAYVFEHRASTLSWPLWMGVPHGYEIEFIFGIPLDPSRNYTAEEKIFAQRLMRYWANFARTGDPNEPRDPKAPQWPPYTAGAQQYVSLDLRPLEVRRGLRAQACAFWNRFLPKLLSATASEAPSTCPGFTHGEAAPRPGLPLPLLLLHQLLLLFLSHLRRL
Run Description: Kinetic study of AChE inhibition (Lineweaver-Burk)
Format: biochemical
Condition Details: mixed-type inhibition; mean ± SEM
Just the number in µM, nothing appended.

## Task Recorded αKi (non-competitive inhibition constant), AChE of O=C(NCCCCCCCCNc1c2c(nc3ccccc13)CCCC2)c1ccccc1O , please.
## Result 0.263

## Task Recorded αKi (non-competitive inhibition constant), AChE of COc1cc(F)c(F)cc1C(=O)NCCCCCCCCNc1c2c(nc3ccccc13)CCCC2 , please.
## Result 0.0998

## Task Recorded αKi (non-competitive inhibition constant), AChE of Oc1ccccc1/C=N/CCCCCCCCNc1c2c(nc3ccccc13)CCCC2 [10c] , please.
## Result 0.0644

## Task Recorded αKi (non-competitive inhibition constant), AChE of O=C(NCCCCCCCCNc1c2c(nc3ccccc13)CCCC2)c1cc(F)c(F)cc1O , please.
## Result 0.134

## Task Recorded αKi (non-competitive inhibition constant), AChE of COc1ccccc1C(=O)NCCCCCCCCNc1c2c(nc3ccccc13)CCCC2 , please.
## Result 0.213

FYI, the data here is from paper PMC9916969.
